B1: Pistol ribozyme (parent)
chain: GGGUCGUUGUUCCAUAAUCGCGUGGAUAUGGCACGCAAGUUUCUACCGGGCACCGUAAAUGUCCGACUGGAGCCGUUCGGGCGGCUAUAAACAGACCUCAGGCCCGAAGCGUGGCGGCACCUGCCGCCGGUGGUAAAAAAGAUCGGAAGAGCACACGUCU

Variants of: B1
assay_overview: aptazyme ON/OFF ratio, guanine; higher = stronger switching; co-transcriptional cleavage with and without guanine
Each item that follows carries a reported aptazyme ON/OFF ratio.
endpoint_label: aptazyme ON/OFF ratio

> print(dat)
                    mutation.string  endpoint.value
 1           U8A G9U U10C U11C C13U            1.03
 2  U7A U8C G9U U10G U11G C12G C13A            1.15
 3            U7C U8A G9C U10C C13A            1.03
 4            U7C U8A G9C U11G C13G            1.05
 5            U7G U8G G9C U10A C13U            1.03
 6           U8G G9C U10G U11G C13G            1.12
 7                U7G G9A C12U C13G            1.15
 8  U7G U8G G9U U10G U11G C12U C13U            1.18
 9           U7A G9U U10A U11A C12U            1.28
10       U7C U8G G9A U10C U11C C13G            1.01
11               G9U U10A U11A C13U            1.25
12                          U8G G9U            3.25
13           U7G U8A U10A U11G C12U            1.14
14      U7A U8A U10G U11A C12A C13G             1.1
15       U7G U8C G9C U10C U11G C12A            1.14
16            U7C U8C G9A U10G U11G            1.59
17       U7A U8C G9U U10A C12G C13G            1.22
18  U7C U8A G9A U10C U11A C12U C13U            1.11
19       U7G U8G G9C U10A U11G C13U            1.04
20                    U8A U10G C12A            1.31
21          G9A U10A U11C C12U C13A            1.34
22  U7G U8C G9C U10C U11C C12U C13G            1.21

Hey, just so you know, these numbers are from the RNAGym collection of RNA variant scans (doi:10.1021/acssynbio.7b00057).
